- tested_target: KPC-2 β-lactamase (purified) (UniProt Q9F663 30-293)
- Sequence (Q9F663 30-293): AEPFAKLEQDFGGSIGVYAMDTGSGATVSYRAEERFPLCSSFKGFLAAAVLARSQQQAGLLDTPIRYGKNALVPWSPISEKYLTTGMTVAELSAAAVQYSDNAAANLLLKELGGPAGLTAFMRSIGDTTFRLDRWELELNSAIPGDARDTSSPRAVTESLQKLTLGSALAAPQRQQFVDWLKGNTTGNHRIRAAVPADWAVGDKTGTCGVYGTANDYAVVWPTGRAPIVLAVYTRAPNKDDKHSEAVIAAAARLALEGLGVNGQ
- method_summary: cell-based or functional assay
Answer each item with its documented ampicillin MIC of E. coli TP142 (chromosomal blaKPC-2) carrying the BLIP plasmid.

### Prompt Could you please provide reported ampicillin MIC of E. coli TP142 (chromosomal blaKPC-2) carrying the BLIP plasmid for BLIP K74T:W112D (natural protein) AGVMTGAKFTQIQFGMTRQQVLDIAGAENCETGGSFGDSIHCRGHAAGDYYAYATFGFTSAAADAKVDSKSQETLLAPSAPTLTLAKFNQVTVGMTRAQVLATVGQGSCTTDSEYYPAYPSTAGVTLSLSCFDVDGYSSTGFYRGSAHLWFTDGVLQGKRQWDLV ? Thanks!
### Response ≤ 3 µg/mL

### Prompt Output ampicillin MIC of E. coli TP142 (chromosomal blaKPC-2) carrying the BLIP plasmid of BLIP E73K:K74T (natural protein) AGVMTGAKFTQIQFGMTRQQVLDIAGAENCETGGSFGDSIHCRGHAAGDYYAYATFGFTSAAADAKVDSKSQKTLLAPSAPTLTLAKFNQVTVGMTRAQVLATVGQGSCTTWSEYYPAYPSTAGVTLSLSCFDVDGYSSTGFYRGSAHLWFTDGVLQGKRQWDLV
### Response ≤ 3 µg/mL

### Prompt Read off the recorded ampicillin MIC of E. coli TP142 (chromosomal blaKPC-2) carrying the BLIP plasmid for BLIP K74T:R160G (natural protein) AGVMTGAKFTQIQFGMTRQQVLDIAGAENCETGGSFGDSIHCRGHAAGDYYAYATFGFTSAAADAKVDSKSQETLLAPSAPTLTLAKFNQVTVGMTRAQVLATVGQGSCTTWSEYYPAYPSTAGVTLSLSCFDVDGYSSTGFYRGSAHLWFTDGVLQGKGQWDLV
### Response ≤ 3 µg/mL

These entries and their values trace back to paper PMC5656002.
